Entry source: ChEMBL document CHEMBL1697781

Items are presented alongside their recorded LDH Increase - Index Value.
- Tested on: Hepatotoxicity
- ASSAY: FDA HLAED, lactate dehydrogenase (LDH) increase
- SETUP_CONDITIONS: human
Just the number, please, no unit attached.

Worked cases, answers included:
COMPOUND	LDH Increase - Index Value
N=C(N)c1ccc(OCCCCCOc2ccc(C(=N)N)cc2)cc1 [PENTAMIDINE]	5.7
CC(=O)N(CC(O)CN(C(C)=O)c1c(I)c(C(=O)NCC(O)CO)c(I)c(C(=O)NCC(O)CO)c1I)c1c(I)c(C(=O)NCC(O)CO)c(I)c(C(=O)NCC(O)CO)c1I (stereo not drawn) [IODIXANOL]	0
COc1ccc(C(=O)Nc2ccccc2CCC2CCCCN2C)cc1 (stereo not drawn) [ENCAINIDE]	4.1
CCc1cccc2c3c([nH]c12)C(CC)(CC(=O)O)OCC3 (stereo not drawn) [ETODOLAC]	0.6
CN(Cc1cnc2nc(N)nc(N)c2n1)c1ccc(C(=O)N[C@@H](CCC(=O)O)C(=O)O)cc1 [METHOTREXATE]	3.5

Which LDH Increase - Index Value is reported for this compound? C[C@@H]1CN(c2c(F)c(N)c3c(=O)c(C(=O)O)cn(C4CC4)c3c2F)C[C@H](C)N1 [SPARFLOXACIN] 0

Subsequent entry: CCC(=O)O[C@H]1CC[C@H]2[C@@H]3CCC4=CC(=O)CC[C@]4(C)[C@H]3CC[C@]12C [TESTOSTERONE PROPIONATE] 2.4

Subsequent entry: CN(C/C=C/C#CC(C)(C)C)Cc1cccc2ccccc12 [TERBINAFINE] 1.1

Subsequent entry: CCCCCCCCCCC(=O)O[C@H]1CC[C@H]2[C@@H]3CCc4cc(O)ccc4[C@H]3CC[C@]12C [ESTRADIOL UNDECYLATE] 1.2

Subsequent entry: CC(=O)NO [ACETOHYDROXAMIC ACID] 0

---

- Test system: Hepatotoxicity
- ASSAY: FDA HLAED, lactate dehydrogenase (LDH) increase
- SETUP_CONDITIONS: human
READOUT_KIND: LDH Increase - Index Value
Just the number, please, no unit attached.

Worked cases, answers included:
COMPOUND	READOUT_KIND	READOUT_NUMBER
Nc1cc(N2CCCCC2)nc(N)[n+]1[O-] [MINOXIDIL]	LDH Increase - Index Value	0
CC(C)(C)NCC(O)COc1cccc2c1CC(O)C(O)C2 (stereo not given) [NADOLOL]	LDH Increase - Index Value	0
CCCCCCCN(CC)CCCC(O)c1ccc(NS(C)(=O)=O)cc1 (stereo not given) [IBUTILIDE]	LDH Increase - Index Value	0
COc1cc2c(cc1OC)[C@@H](Cc1cc(OC)c(OC)c(OC)c1)[N+](C)(CCCOC(=O)CC/C=C/CCC(=O)OCCC[N+]1(C)CCc3cc(OC)c(OC)cc3[C@H]1Cc1cc(OC)c(OC)c(OC)c1)CC2.[Cl-].[Cl-] (stereo not given in full) [MIVACURIUM CHLORIDE]	LDH Increase - Index Value	0
O=C1CN=C(c2ccccc2)c2cc(Cl)ccc2N1CC1CC1 [PRAZEPAM]	LDH Increase - Index Value	0
Nc1nc(/C(=C/CC(=O)O)C(=O)N[C@@H]2C(=O)N3C(C(=O)O)=CCS[C@H]23)cs1 [CEFTIBUTEN]	LDH Increase - Index Value	0

Which LDH Increase - Index Value is reported for this compound? C[C@]12CC[C@H]3[C@@H](CCC4=CC(=O)CC[C@@]43C)[C@@H]1CC[C@@H]2O [TESTOSTERONE] 2.4

Subsequent entry: Cc1cccc(C)c1NC(=O)C(C)N (stereo not given) [TOCAINIDE] 1.7

Subsequent entry: C[C@]12CC[C@@H]3c4ccc(OC(=O)Cc5ccc(N(CCCl)CCCl)cc5)cc4CC[C@H]3[C@@H]1CC[C@@H]2OC(=O)Cc1ccc(N(CCCl)CCCl)cc1 [ESTRADIOL MUSTARD] 0

Subsequent entry: COc1cc([C@@H]2c3cc4c(cc3[C@@H](O[C@@H]3O[C@@H]5CO[C@@H](c6cccs6)O[C@H]5[C@H](O)[C@H]3O)[C@H]3COC(=O)[C@H]23)OCO4)cc(OC)c1O [TENIPOSIDE] 0

---

- Tested on: Hepatotoxicity
- ASSAY: FDA HLAED, liver enzyme composite activity
- SETUP_CONDITIONS: human, Liver
READOUT_KIND: Composite Activity - Active
Just the number, please, no unit attached.

Worked cases, answers included:
MOLECULE	Composite Activity - Active
CC1(C)S[C@@H]2[C@H](NC(=O)[C@H](NC(=O)N3CCN(S(C)(=O)=O)C3=O)c3ccccc3)C(=O)N2[C@H]1C(=O)O	0
CO[C@H]1/C=C/O[C@@]2(C)Oc3c(C)c(O)c4c(c3C2=O)C2=NC3(CCN(CC(C)C)CC3)NC2=C(NC(=O)/C(C)=C\C=C\[C@H](C)[C@H](O)[C@@H](C)[C@@H](O)[C@@H](C)[C@H](OC(C)=O)[C@@H]1C)C4=O	4
CCCNCC(O)COc1ccccc1C(=O)CCc1ccccc1 (centres undefined)	3

Which Composite Activity - Active is reported for this molecule? O=C(O)COCCN1CCN(C(c2ccccc2)c2ccc(Cl)cc2)CC1 (centres undefined) 0

---

- Test system: Hepatotoxicity
- ASSAY: FDA HLAED, gamma-glutamyl transferase (GGT) increase
- SETUP_CONDITIONS: human
READOUT_KIND: GGT Increase - Index Value
Just the number, please, no unit attached.

MOLECULE	GGT Increase - Index Value
C[C@]12CC[C@@H]3c4ccc(OC(=O)Cc5ccc(N(CCCl)CCCl)cc5)cc4CC[C@H]3[C@@H]1CC[C@@H]2OC(=O)Cc1ccc(N(CCCl)CCCl)cc1 [ESTRADIOL MUSTARD]	0
CC1(C)S[C@@H]2[C@H](NC(=O)[C@H](N)c3ccc(O)cc3)C(=O)N2[C@H]1C(=O)O [AMOXICILLIN]	0
CC(C)[C@H](N)C(=O)OCCOCn1cnc2c(=O)[nH]c(N)nc21 [VALACYCLOVIR]	0
CC(C)(C)NCC(O)c1ccc(O)c(CO)n1 (stereo unspecified) [PIRBUTEROL]	0
COc1cc([C@@H]2c3cc4c(cc3[C@@H](O[C@@H]3O[C@@H]5CO[C@@H](C)O[C@H]5[C@H](O)[C@H]3O)[C@H]3COC(=O)[C@H]23)OCO4)cc(OC)c1O [ETOPOSIDE]	0
COc1cc([C@@H]2c3cc4c(cc3[C@@H](O[C@@H]3O[C@@H]5CO[C@@H](c6cccs6)O[C@H]5[C@H](O)[C@H]3O)[C@H]3COC(=O)[C@H]23)OCO4)cc(OC)c1O [TENIPOSIDE]	0

Which GGT Increase - Index Value is reported for this molecule? CCOC(=O)[C@H](CCc1ccccc1)N[C@@H](C)C(=O)N1[C@H](C(=O)O)C[C@@H]2CCC[C@@H]21 1.4

Subsequent entry: Cc1nc2n(c(=O)c1CCN1CCC(c3noc4cc(F)ccc34)CC1)CCCC2 [RISPERIDONE] 1.6

---

Items are presented alongside their recorded GGT Increase - Index Value.
- System: Hepatotoxicity
- ASSAY: FDA HLAED, gamma-glutamyl transferase (GGT) increase
- SETUP_CONDITIONS: human
Just the number, please, no unit attached.

Worked cases, answers included:
MOLECULE	READOUT_NUMBER
COC(=O)C1=C(C)NC(C)=C(C(=O)OCCN(C)Cc2ccccc2)C1c1cccc([N+](=O)[O-])c1 (stereo unspecified)	0.4
O=c1n(CCCN2CCN(c3cccc(Cl)c3)CC2)nc2ccccn12	0
CCCCC[C@H](O)/C=C/[C@@H]1[C@H]2C/C(=C/CCCC(=O)O)O[C@H]2C[C@H]1O	0

Value wanted: GGT Increase - Index Value (Hepatotoxicity) of entry CC(C)(C)NCC(O)c1ccc(O)c(CO)c1 (stereo unspecified) 0

Subsequent entry: CNCCCC12CCC(c3ccccc31)c1ccccc12 0

Subsequent entry: CCCN1C[C@H](CSC)C[C@@H]2c3cccc4[nH]cc(c34)C[C@H]21 [PERGOLIDE] 0

Subsequent entry: Cc1ncc2n1-c1ccc(Cl)cc1C(c1ccccc1F)=NC2 0

Subsequent entry: Nc1ccn([C@@H]2CS[C@H](CO)O2)c(=O)n1 1.7

---

- Tested on: Hepatotoxicity
- ASSAY: FDA HLAED, serum glutamic pyruvic transaminase (SGPT) increase
- SETUP_CONDITIONS: human
Items are presented alongside their recorded SGPT Increase - Index Value.
Just the number, please, no unit attached.

Worked cases, answers included:
COMPOUND	TEST_SYSTEM	READOUT_NUMBER
OCc1cc(C(O)CNCCCCCCOCCCCc2ccccc2)ccc1O (stereo not drawn)	Hepatotoxicity	0.1
O=C(O)CCCCCCCC(=O)O	Hepatotoxicity	0
CC1Cc2ccccc2N1NC(=O)c1ccc(Cl)c(S(N)(=O)=O)c1 (stereo not drawn) [INDAPAMIDE]	Hepatotoxicity	0.5

Which SGPT Increase - Index Value is reported for this compound? O=C(O)c1cc(/N=N/c2ccc(O)c(C(=O)O)c2)ccc1O 1.5

Subsequent entry: CCCCCCC(=O)O[C@H]1CC[C@H]2[C@@H]3CCc4cc(O)ccc4[C@H]3CC[C@]12C [ESTRADIOL ENANTHATE] 2.1

Subsequent entry: FC(F)OC(Cl)C(F)(F)F (stereo not drawn) 0.4

Subsequent entry: CO/N=C(\C(=O)N[C@@H]1C(=O)N2C(C(=O)O)=CCS[C@H]12)c1csc(N)n1 4

Subsequent entry: FCOC(C(F)(F)F)C(F)(F)F 0

Subsequent entry: O=C(O)C1=C(CSc2nnnn2CS(=O)(=O)O)CS[C@@H]2[C@H](NC(=O)[C@H](O)c3ccccc3)C(=O)N12 0

Subsequent entry: CN(C/C=C/c1ccccc1)Cc1cccc2ccccc12 0
